Provide the recorded pIC50 for the entries that follow.
Molecular target: FLT3 (Homo sapiens)
Sequence (P36888 with tags, fused parts or gaps with the stated changes, form open): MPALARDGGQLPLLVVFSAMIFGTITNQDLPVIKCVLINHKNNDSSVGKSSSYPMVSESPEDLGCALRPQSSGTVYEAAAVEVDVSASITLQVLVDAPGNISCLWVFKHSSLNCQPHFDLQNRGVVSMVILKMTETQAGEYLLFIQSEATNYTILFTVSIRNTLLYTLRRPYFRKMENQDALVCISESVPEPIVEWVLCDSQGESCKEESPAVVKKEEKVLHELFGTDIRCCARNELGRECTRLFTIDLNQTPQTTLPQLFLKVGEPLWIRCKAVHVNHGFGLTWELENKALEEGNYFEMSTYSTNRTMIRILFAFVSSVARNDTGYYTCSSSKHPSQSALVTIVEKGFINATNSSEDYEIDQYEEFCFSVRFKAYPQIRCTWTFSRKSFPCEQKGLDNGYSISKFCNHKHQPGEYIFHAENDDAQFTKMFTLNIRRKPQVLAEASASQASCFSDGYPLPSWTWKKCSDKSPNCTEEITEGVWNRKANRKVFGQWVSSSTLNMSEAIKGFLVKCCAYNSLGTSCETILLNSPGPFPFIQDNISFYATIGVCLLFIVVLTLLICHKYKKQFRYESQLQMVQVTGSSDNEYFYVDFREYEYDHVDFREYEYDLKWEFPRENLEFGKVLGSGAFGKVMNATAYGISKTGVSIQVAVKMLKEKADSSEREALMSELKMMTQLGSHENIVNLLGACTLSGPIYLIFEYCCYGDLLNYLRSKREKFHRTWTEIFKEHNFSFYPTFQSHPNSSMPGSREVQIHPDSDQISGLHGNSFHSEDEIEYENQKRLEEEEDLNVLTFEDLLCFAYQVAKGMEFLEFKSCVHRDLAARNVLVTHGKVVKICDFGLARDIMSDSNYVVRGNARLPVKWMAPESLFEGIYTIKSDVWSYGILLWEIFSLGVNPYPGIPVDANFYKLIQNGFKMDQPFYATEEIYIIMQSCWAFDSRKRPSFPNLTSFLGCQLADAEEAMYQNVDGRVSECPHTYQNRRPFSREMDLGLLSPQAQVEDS
Assay: Inhibitory activity against FLT3 autophosphorylation using ELISA method
Settings: MV4-11 cells, 1 hr with compound, read-out: IC50 of FLT3-phosphorylation
Structures can show the parent of a compound that is named as a salt.
Answers are plain numbers, as −log10 of the molar value.

Use these answered entries as a reference point.
compound=COc1cc2nccc(Oc3c(Cl)cc(NC(=O)NCCC(C)(C)C)cc3Cl)c2cc1OC recorded_number=6.96
compound=COc1cc2c(Oc3ccc(NC(=O)NCCC(C)(C)C)cc3F)ccnc2cc1OCCN1CCCCC1 recorded_number=6.70
compound=COc1cc2nccc(Oc3ccc(NC(=O)NCCC(C)(C)C)cc3C)c2cc1OC recorded_number=8.15
compound="COc1cc2c(Oc3ccc(NC(=O)NCCC(C)(C)C)cc3)ccnc2cc1OCCN1CCCCC1 [Compound 40, hydrochloride]" recorded_number=7.03
compound="COc1cc2nccc(Oc3ccc(NC(=O)NCCC(C)(C)C)cc3)c2cc1OC [Compound 1, hydrochloride]" recorded_number=8.70

Look up pIC50 for the entries below, preserving their order.
1. COc1cc2c(Oc3ccc(NC(=O)NCCC(C)(C)C)c(F)c3)ccnc2cc1OCCN1CCCCC1 [Compound 43, hydrochloride]
2. COc1cc2c(Oc3ccc(NC(=O)NCCC(C)(C)C)c(F)c3)ccnc2cc1OCCN1CCOCC1 [Compound 41, hydrochloride]

-- reply
6.67
6.51
